- System: Rattus norvegicus
- PROCEDURE SUMMARY: In vivo maximal penile erection in rats 60 min after subcutaneous administration
- Format: functional
OBSERVATION TYPE: Activity (%)
State the answer as a number, implicitly in %.

Guide cases for Activity, answers given:
[[record]]
compound = "Fc1ccccc1N1CCN(Cc2nc3ccccc3[nH]2)CC1"
val = 70

[[record]]
compound = "Fc1ccc2[nH]c(CN3CCN(c4ccccn4)CC3)nc2c1"
val = 75

[[record]]
compound = "N#Cc1ccccc1N1CCN(Cc2nc3ccccc3[nH]2)CC1"
val = 65

[[record]]
compound = "COc1ccccc1N1CCN(Cc2nc3ccccc3[nH]2)CC1"
val = 60

[[record]]
compound = "CN1CCc2cccc3c2[C@H]1Cc1ccc(O)c(O)c1-3 [APOMORPHINE]"
val = 91

[[record]]
compound = "Cc1cccc(N2CCN(Cc3nc4ccccc4[nH]3)CC2)n1"
val = 62

[[record]]
compound = "Brc1cc(Br)c2[nH]c(CN3CCN(c4ccccn4)CC3)nc2c1"
val = 60

[[record]]
compound = "C1=C(c2ccccn2)CCN(Cc2nc3ccccc3[nH]2)C1"
val = 75


So, `c1ccc(N2CCN(Cc3nc4ccccc4[nH]3)CC2)cc1` ? Its Activity was 75
